Origin of values: paper PMC3439536

# measurement-target: CR2 SCR1-4-BCCP (Homo sapiens, UniProt P20023 21-273)
# Sequence (P20023 21-273): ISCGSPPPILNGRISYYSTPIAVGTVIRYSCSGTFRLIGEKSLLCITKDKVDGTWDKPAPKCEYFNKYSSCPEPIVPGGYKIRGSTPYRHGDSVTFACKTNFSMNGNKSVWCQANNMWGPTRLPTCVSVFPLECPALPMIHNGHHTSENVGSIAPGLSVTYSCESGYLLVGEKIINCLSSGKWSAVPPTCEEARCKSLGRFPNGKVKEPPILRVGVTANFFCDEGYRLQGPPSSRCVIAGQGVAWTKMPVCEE
# protocol-notes: SPR
Recorded Kd values for a group of binders are listed next.

{"columns": ["binder", "Kd [nM]"],
 "data": [
  ["25bp adenoviral E1a DNA (dsDNA) DNA 1: TTCTATGCCAAACCTTGTGCCGGAG DNA 2: CTCCGGCACAAGGTTTGGCATAGAA", 358],
  ["50% CpG rich DNA (dsDNA) DNA 1: TTCGATCGCACGCCCG DNA 2: CGGGCGTGCGATCGAA", 509],
  ["15bp adenoviral E1a DNA (dsDNA) DNA 1: TTCTATGCCAAACCT DNA 2: AGGTTTGGCATAGAA", 245],
  ["16bp scrambled DNA (dsDNA) DNA 1: ATGCATGCTGACTACG DNA 2: CGTAGTCAGCATGCAT", 266]
]}
